Molecular target: Mitogen-activated protein kinase 14 (Homo sapiens) (UniProt Q16539);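 also: values are mean percent inhibition of p38alpha kinase activity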
Sequence (Q16539 whole entry): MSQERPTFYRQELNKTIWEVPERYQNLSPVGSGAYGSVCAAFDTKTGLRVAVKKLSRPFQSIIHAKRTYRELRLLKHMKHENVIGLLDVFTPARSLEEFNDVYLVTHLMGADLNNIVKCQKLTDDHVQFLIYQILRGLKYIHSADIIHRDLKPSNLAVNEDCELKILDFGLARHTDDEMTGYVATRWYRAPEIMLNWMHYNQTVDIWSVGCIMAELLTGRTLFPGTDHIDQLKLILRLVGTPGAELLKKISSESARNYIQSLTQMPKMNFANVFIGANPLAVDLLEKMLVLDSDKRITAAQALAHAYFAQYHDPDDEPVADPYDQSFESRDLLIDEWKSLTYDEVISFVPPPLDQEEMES
Settings: at 1 µM

>  <compound>
Nc1nc(-c2ccccn2)c(-c2ccc3ncccc3n2)s1

>  <readout-unit>
%

>  <inhibition>
6.59

$$$$
>  <compound>
CC1=C(C(=O)Nc2ccc3[nH]ncc3c2)C(c2ccc(F)cc2)NC(=O)N1 (stereo unspecified)

>  <readout-unit>
%

>  <inhibition>
6.99

$$$$
>  <compound>
CS(=O)(=O)Nc1ccc(N/C=C2\C(=O)Nc3ccccc32)cc1

>  <readout-unit>
%

>  <inhibition>
-2.23

$$$$
>  <compound>
CCn1c(-c2nonc2N)nc2cncc(C(=O)N3CC[C@H](N)C3)c21

>  <readout-unit>
%

>  <inhibition>
10.7

$$$$
>  <compound>
CC(C)=Cc1cccc2c1/C(=N/Nc1ccc(S(N)(=O)=O)cc1)C(=O)N2

>  <readout-unit>
%

>  <inhibition>
1.72

$$$$
>  <compound>
CNC(=O)c1cncc(/C=C/c2c(Cl)cccc2Cl)c1

>  <readout-unit>
%

>  <inhibition>
8.04

$$$$

###

Documented inhibition across a set of compounds
Biological target: Hepatocyte growth factor receptor (Homo sapiens);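 also: each value is an averaged inhibition figure for MET, taken as the mean across measurements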
Details: at 1 µM

>  <compound>
Cc1cc(O)cc(C)c1/C=C/c1cncc(-c2nn[nH]n2)c1

>  <inhibition>
8.95%

$$$$
>  <compound>
Nc1nc(-c2ccc3c(c2)C(=Cc2cc(Br)c(O)c(Br)c2)C(=O)N3)cs1

>  <inhibition>
4.73%

$$$$
>  <compound>
CC(=O)Nc1cccc(C#Cc2cncnc2Nc2ccc(OCc3cccc(F)c3)c(Cl)c2)n1

>  <inhibition>
2.91%

$$$$
>  <compound>
O=C1NC(=O)C(c2ccccc2Cl)=C1Nc1cccc(O)c1

>  <inhibition>
-0.4%

$$$$
>  <compound>
CCn1c(-c2nonc2N)nc2cnc(Oc3cccc(NC(=O)c4ccc(OCCN5CCOCC5)cc4)c3)cc21

>  <inhibition>
7.84%

$$$$
>  <compound>
O=C1NC(=O)C(c2ccc(Cl)cc2)=C1Nc1ccc(Cl)c(C(=O)O)c1

>  <inhibition>
-0.38%

$$$$
>  <compound>
O=C1NC(=O)C(c2cccc(Cl)c2)=C1Nc1ccc(O)c(Cl)c1

>  <inhibition>
3.7%

$$$$
>  <compound>
N#Cc1c(NC(=O)c2cccc3ccccc23)sc2c1CCCC2

>  <inhibition>
7.33%

$$$$
>  <compound>
COc1ccc(-c2ccncc2)cc1C(N)=O

>  <inhibition>
5.8%

$$$$
>  <compound>
NCc1ccc(-c2nc(-c3ccc(Cl)c(O)c3)c(-c3ccncc3)[nH]2)cc1

>  <inhibition>
14.5%

$$$$
>  <compound>
CC1=C(C(=O)Nc2ccc3[nH]ncc3c2)C(c2ccc(F)cc2)NC(=O)N1 (stereo unspecified)

>  <inhibition>
14.9%

$$$$
>  <compound>
COC(=O)Nc1nc2cc(Oc3cccc(NC(=O)Nc4cc(C(F)(F)F)ccc4F)c3)ccc2[nH]1

>  <inhibition>
0.32%

$$$$
>  <compound>
CN1CCC(C(=O)Nc2n[nH]c3nnc(-c4ccccc4)cc23)CC1

>  <inhibition>
3.43%

$$$$
>  <compound>
Cc1ccc(NC(=O)c2ccnc(N3CCCC3)c2)cc1-c1ccc(C(=O)NCC2CC2)cc1

>  <inhibition>
7.36%

$$$$
>  <compound>
CN(C)c1cc2c(Nc3ccc4nc(Cc5ccccc5)[nH]c4c3)ncnc2cn1

>  <inhibition>
5.85%

$$$$
>  <compound>
CCCN1CCC=C(c2ccc(Nc3nc(Nc4ccccc4C(N)=O)c4cc[nH]c4n3)c(C)c2)C1

>  <inhibition>
13.1%

$$$$
>  <compound>
NC(=O)c1ccc(-c2nc(-c3ccccn3)c(-c3ccc4c(c3)OCO4)[nH]2)cc1

>  <inhibition>
9.28%

$$$$
>  <compound>
CCn1c(-c2nonc2N)nc2ccncc21

>  <inhibition>
2.41%

$$$$
>  <compound>
O=C1Nc2ccc(C(=O)c3ccco3)cc2C1=Cc1cc(Cl)c(O)c(Cl)c1

>  <inhibition>
15.7%

$$$$
>  <compound>
COc1cccc(-n2ncc3c(N/N=C/c4cccc(F)c4)ncnc32)c1

>  <inhibition>
17.2%

$$$$
>  <compound>
COc1cc2c(cc1Nc1nc(N3CCc4ccccc43)c3cc[nH]c3n1)N(C(=O)CN(C)C)CC2

>  <inhibition>
-6.58%

$$$$

###

The entries below are paired with their reported inhibition.
Molecular target: Muscle, skeletal receptor tyrosine-protein kinase (Homo sapiens) (UniProt O15146)
Sequence (O15146 whole entry): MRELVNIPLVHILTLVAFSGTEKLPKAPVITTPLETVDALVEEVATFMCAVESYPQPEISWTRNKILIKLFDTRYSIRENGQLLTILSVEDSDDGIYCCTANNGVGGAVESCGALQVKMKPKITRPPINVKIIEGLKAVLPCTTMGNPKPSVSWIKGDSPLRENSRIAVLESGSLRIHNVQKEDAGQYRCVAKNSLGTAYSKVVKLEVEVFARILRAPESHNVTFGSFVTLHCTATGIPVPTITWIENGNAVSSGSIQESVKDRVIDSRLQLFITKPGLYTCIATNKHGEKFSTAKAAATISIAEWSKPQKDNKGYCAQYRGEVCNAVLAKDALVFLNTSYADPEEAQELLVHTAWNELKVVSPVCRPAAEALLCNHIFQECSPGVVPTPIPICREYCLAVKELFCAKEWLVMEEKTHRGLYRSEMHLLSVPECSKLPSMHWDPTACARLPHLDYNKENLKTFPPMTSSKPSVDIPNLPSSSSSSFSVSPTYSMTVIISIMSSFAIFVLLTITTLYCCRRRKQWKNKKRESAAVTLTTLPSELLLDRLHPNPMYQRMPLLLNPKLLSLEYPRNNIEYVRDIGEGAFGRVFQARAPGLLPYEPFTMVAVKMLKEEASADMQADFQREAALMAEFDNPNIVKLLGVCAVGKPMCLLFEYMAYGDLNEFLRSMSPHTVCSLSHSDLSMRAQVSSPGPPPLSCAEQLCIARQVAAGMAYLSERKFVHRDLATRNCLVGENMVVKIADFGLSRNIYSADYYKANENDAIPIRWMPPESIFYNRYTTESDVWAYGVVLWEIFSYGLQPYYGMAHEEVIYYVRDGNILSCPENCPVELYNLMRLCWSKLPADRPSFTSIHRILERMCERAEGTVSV
Settings: at 1 µM
readout-type: inhibition (%)

>  <smiles-structure>
CCn1c(-c2nonc2N)nc2c(N3CCCC3)nccc21

>  <target-or-test-system>
Muscle, skeletal receptor tyrosine-protein kinase (Homo sapiens) (UniProt O15146)

>  <readout-unit>
%

>  <observed-value>
3.11

$$$$
>  <smiles-structure>
O=C(Nc1n[nH]c2nc(-c3ccco3)c(Br)cc12)C1CC1

>  <target-or-test-system>
Muscle, skeletal receptor tyrosine-protein kinase (Homo sapiens) (UniProt O15146)

>  <readout-unit>
%

>  <observed-value>
6.32

$$$$
>  <smiles-structure>
CCn1c(-c2nonc2N)nc2c(C#CC(C)(C)O)nc(OC[C@@H](N)c3ccccc3)cc21

>  <target-or-test-system>
Muscle, skeletal receptor tyrosine-protein kinase (Homo sapiens) (UniProt O15146)

>  <readout-unit>
%

>  <observed-value>
2.97

$$$$
>  <smiles-structure>
CCN1CCC(CC(=O)Nc2n[nH]c3nc(-c4cccs4)c(Br)cc23)CC1

>  <target-or-test-system>
Muscle, skeletal receptor tyrosine-protein kinase (Homo sapiens) (UniProt O15146)

>  <readout-unit>
%

>  <observed-value>
6.39

$$$$
>  <smiles-structure>
O=C1NC(=O)C(c2cccc(Cl)c2)=C1Nc1ccc(O)c(Cl)c1

>  <target-or-test-system>
Muscle, skeletal receptor tyrosine-protein kinase (Homo sapiens) (UniProt O15146)

>  <readout-unit>
%

>  <observed-value>
2.41

$$$$
>  <smiles-structure>
COc1ccc(COc2ccc(Cc3cnc(N)nc3N)cc2OC)cc1

>  <target-or-test-system>
Muscle, skeletal receptor tyrosine-protein kinase (Homo sapiens) (UniProt O15146)

>  <readout-unit>
%

>  <observed-value>
9.52

$$$$
>  <smiles-structure>
CCn1c(-c2nonc2N)nc2ccncc21

>  <target-or-test-system>
Muscle, skeletal receptor tyrosine-protein kinase (Homo sapiens) (UniProt O15146)

>  <readout-unit>
%

>  <observed-value>
1.96

$$$$
>  <smiles-structure>
NC(=O)c1ccc(-c2nc(-c3ccccn3)c(-c3ccc4c(c3)OCO4)[nH]2)cc1

>  <target-or-test-system>
Muscle, skeletal receptor tyrosine-protein kinase (Homo sapiens) (UniProt O15146)

>  <readout-unit>
%

>  <observed-value>
3.59

$$$$
>  <smiles-structure>
CS(=O)(=O)Nc1ccc(N/C=C2\C(=O)Nc3ccccc32)cc1

>  <target-or-test-system>
Muscle, skeletal receptor tyrosine-protein kinase (Homo sapiens) (UniProt O15146)

>  <readout-unit>
%

>  <observed-value>
35.9

$$$$
>  <smiles-structure>
COc1ccc(-c2coc3ncnc(N)c23)cc1

>  <target-or-test-system>
Muscle, skeletal receptor tyrosine-protein kinase (Homo sapiens) (UniProt O15146)

>  <readout-unit>
%

>  <observed-value>
9.1

$$$$
>  <smiles-structure>
COc1cc2c(cc1Nc1nc(N3CCc4ccccc43)c3cc[nH]c3n1)N(C(=O)CN(C)C)CC2

>  <target-or-test-system>
Muscle, skeletal receptor tyrosine-protein kinase (Homo sapiens) (UniProt O15146)

>  <readout-unit>
%

>  <observed-value>
4.18

$$$$
>  <smiles-structure>
CCn1c(-c2nonc2N)nc2cncc(C(=O)N3CC[C@H](N)C3)c21

>  <target-or-test-system>
Muscle, skeletal receptor tyrosine-protein kinase (Homo sapiens) (UniProt O15146)

>  <readout-unit>
%

>  <observed-value>
3.51

$$$$
>  <smiles-structure>
O=C1NC(=O)C(N2CCc3ccccc32)=C1c1ccc(Cl)cc1

>  <target-or-test-system>
Muscle, skeletal receptor tyrosine-protein kinase (Homo sapiens) (UniProt O15146)

>  <readout-unit>
%

>  <observed-value>
3.86

$$$$
>  <smiles-structure>
CS(=O)(=O)CCNCc1ccc(-c2ccc3ncnc(Nc4ccc(OCc5cccc(F)c5)c(C(F)(F)F)c4)c3c2)o1

>  <target-or-test-system>
Muscle, skeletal receptor tyrosine-protein kinase (Homo sapiens) (UniProt O15146)

>  <readout-unit>
%

>  <observed-value>
2.72

$$$$
>  <smiles-structure>
NCc1ccc(-c2nc(-c3ccc(Cl)c(O)c3)c(-c3ccncc3)[nH]2)cc1

>  <target-or-test-system>
Muscle, skeletal receptor tyrosine-protein kinase (Homo sapiens) (UniProt O15146)

>  <readout-unit>
%

>  <observed-value>
2.08

$$$$
>  <smiles-structure>
CS(=O)(=O)CCN(CC#N)Cc1ccc(-c2ccc3ncnc(Nc4ccc(OCc5cccc(F)c5)c(Cl)c4)c3c2)o1

>  <target-or-test-system>
Muscle, skeletal receptor tyrosine-protein kinase (Homo sapiens) (UniProt O15146)

>  <readout-unit>
%

>  <observed-value>
1.87

$$$$
>  <smiles-structure>
CS(=O)(=O)CCNCc1ccc(-c2ccc3ncnc(Nc4ccc(OCc5ccccc5)c(Cl)c4)c3c2)o1

>  <target-or-test-system>
Muscle, skeletal receptor tyrosine-protein kinase (Homo sapiens) (UniProt O15146)

>  <readout-unit>
%

>  <observed-value>
4.27

$$$$
>  <smiles-structure>
c1cnn2ncc(-c3ccnc(Nc4ccc5c(c4)OCCO5)n3)c2c1

>  <target-or-test-system>
Muscle, skeletal receptor tyrosine-protein kinase (Homo sapiens) (UniProt O15146)

>  <readout-unit>
%

>  <observed-value>
26.9

$$$$
>  <smiles-structure>
Cc1nn(C)c2cc(N(C)c3ccnc(Nc4cccc(S(N)(=O)=O)c4)n3)ccc12

>  <target-or-test-system>
Muscle, skeletal receptor tyrosine-protein kinase (Homo sapiens) (UniProt O15146)

>  <readout-unit>
%

>  <observed-value>
6.58

$$$$
>  <smiles-structure>
CN1CCC(C(=O)Nc2n[nH]c3nnc(-c4ccccc4)cc23)CC1

>  <target-or-test-system>
Muscle, skeletal receptor tyrosine-protein kinase (Homo sapiens) (UniProt O15146)

>  <readout-unit>
%

>  <observed-value>
5.06

$$$$
>  <smiles-structure>
O=C1NC(=O)C(c2ccc(Cl)cc2)=C1Nc1ccc(Cl)c(C(=O)O)c1

>  <target-or-test-system>
Muscle, skeletal receptor tyrosine-protein kinase (Homo sapiens) (UniProt O15146);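 also: reported value is the mean percent inhibition of MuSK kinase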

>  <readout-unit>
%

>  <observed-value>
2.23

$$$$

Attribution: ChEMBL document CHEMBL1961873
